assay: Aqueous solubility of the compound at pH 6.8; assay type: physicochemical
Where a SMILES comes first, the peptide text is derived from it. [ ]: non-standard residue; d: D form. MeBmt = C/C=C/C[C@@H](C)[C@@H](O)[C@H](NC)C(=O)O; NMeT = CN[C@H](C(=O)O)[C@@H](C)O; NMeL = CN[C@@H](CC(C)C)C(=O)O; NMeV = CN[C@H](C(=O)O)C(C)C; dNMeA = CN[C@H](C)C(=O)O; Sar = CNCC(=O)O
readout: solubility (µg/mL)
Give just the number in µg/mL; leave the unit off.

Take a look at these entries with their results.
[
  {
    "compound": "C/C=C/C[C@@H](C)[C@@H](O)[C@H]1C(=O)N[C@@H]([C@@H](C)O)C(=O)N(C)[C@H](C)C(=O)N(C)[C@@H]([C@@H](C)OC)C(=O)N[C@@H](CC(C)C)C(=O)N(C)[C@@H](CC(C)C)C(=O)N[C@@H](C)C(=O)N[C@H](C)C(=O)N(C)[C@@H](CC(C)C)C(=O)N[C@@H](CC(C)C)C(=O)N(C)[C@@H](C(C)C)C(=O)N1C (cyclo(A[dA][NMeL]L[NMeV][MeBmt]T[dNMeA][NMeT](Me)L[NMeL]))",
    "observed-result": 117
  },
  {
    "compound": "C/C=C/C[C@@H](C)[C@@H](O)[C@H]1C(=O)N[C@@H]([C@@H](C)O)C(=O)N(C)CC(=O)N(C)[C@@H]([C@@H](C)CC)C(=O)N[C@@H](CC(C)C)C(=O)N(C)[C@@H](CC(C)C)C(=O)N[C@@H](C)C(=O)N[C@H](C)C(=O)N(C)[C@@H](CC(C)C)C(=O)N[C@@H](CC(C)C)C(=O)N(C)[C@@H](C(C)C)C(=O)N1C",
    "observed-result": 0.2
  }
]

Continue with the next compound.
Exercise: Could you share which solubility value was measured for C/C=C/C[C@@H](C)[C@@H](O)[C@H]1C(=O)N[C@@H]([C@@H](C)O)C(=O)N(C)CC(=O)N(C)[C@@H](CC(C)C)C(=O)N[C@@H](CC(C)C)C(=O)N(C)[C@@H](CC(C)C)C(=O)N[C@@H](C)C(=O)N[C@H](C)C(=O)N(C)[C@@H](CC(C)C)C(=O)N[C@@H](CC(C)C)C(=O)N(C)[C@@H](C(C)C)C(=O)N1C (cyclo(A[dA][NMeL]L[NMeV][MeBmt]T[Sar][NMeL]L[NMeL])) ?
Key: 6.5

###

This section presents compounds with their documented bioavailability values.
test: Oral bioavailability in rat; format: ADME, organism-based; conditions: in vivo
Where a SMILES comes first, the peptide text is derived from it. [ ]: non-standard residue; d: D form. MeBmt = C/C=C/C[C@@H](C)[C@@H](O)[C@H](NC)C(=O)O; NMeT = CN[C@H](C(=O)O)[C@@H](C)O; NMeL = CN[C@@H](CC(C)C)C(=O)O; NMeV = CN[C@H](C(=O)O)C(C)C; dNMeA = CN[C@H](C)C(=O)O
Give just the number in %; leave the unit off.

Take a look at these entries with their results.
[
  {
    "compound": "C/C=C/C[C@@H](C)[C@@H](O)[C@H]1C(=O)N[C@@H]([C@@H](C)O)C(=O)N(C)[C@H](C)C(=O)N(C)[C@@H]([C@@H](C)OC)C(=O)N[C@@H](CC(C)C)C(=O)N(C)[C@@H](CC(C)C)C(=O)N[C@@H](C)C(=O)N[C@H](C)C(=O)N(C)[C@@H](CC(C)C)C(=O)N[C@@H](CC(C)C)C(=O)N(C)[C@@H](C(C)C)C(=O)N1C (cyclo(A[dA][NMeL]L[NMeV][MeBmt]T[dNMeA][NMeT](Me)L[NMeL]))",
    "measurement-units": "%",
    "observed-result": 36
  },
  {
    "compound": "C/C=C/C[C@@H](C)[C@@H](O)[C@H]1C(=O)N[C@@H]([C@@H](C)O)C(=O)N(C)CC(=O)N(C)[C@@H]([C@@H](C)CC)C(=O)N[C@@H](CC(C)C)C(=O)N(C)[C@@H](CC(C)C)C(=O)N[C@@H](C)C(=O)N[C@H](C)C(=O)N(C)[C@@H](CC(C)C)C(=O)N[C@@H](CC(C)C)C(=O)N(C)[C@@H](C(C)C)C(=O)N1C",
    "measurement-units": "%",
    "observed-result": 2.1
  },
  {
    "compound": "C/C=C/C[C@@H](C)[C@@H](O)[C@H]1C(=O)N[C@@H]([C@@H](C)O)C(=O)N(C)[C@H](C)C(=O)N(C)[C@@H]([C@@H](C)CC)C(=O)N[C@@H](CC(C)C)C(=O)N(C)[C@@H](CC(C)C)C(=O)N[C@@H](C)C(=O)N[C@H](C)C(=O)N(C)[C@@H](CC(C)C)C(=O)N[C@@H](CC(C)C)C(=O)N(C)[C@@H](C(C)C)C(=O)N1C",
    "measurement-units": "%",
    "observed-result": 49
  }
]

Continue with the next compound.
Exercise: Could you share which bioavailability value was measured for `C/C=C/C[C@@H](C)[C@@H](O)[C@H]1C(=O)N[C@@H]([C@@H](C)O)C(=O)N(C)[C@H](C)C(=O)N(C)[C@@H](CC(C)C)C(=O)N[C@@H](CC(C)C)C(=O)N(C)[C@@H](CC(C)C)C(=O)N[C@@H](C)C(=O)N[C@H](C)C(=O)N(C)[C@@H](CC(C)C)C(=O)N[C@@H](CC(C)C)C(=O)N(C)[C@@H](C(C)C)C(=O)N1C` ?
Key: 40

###

assay: Oral bioavailability in rat; type: ADME, organism-based; conditions: in vivo
Where a SMILES comes first, the peptide text is derived from it. [ ]: non-standard residue; d: D form. MeBmt = C/C=C/C[C@@H](C)[C@@H](O)[C@H](NC)C(=O)O; NMeL = CN[C@@H](CC(C)C)C(=O)O; NMeV = CN[C@H](C(=O)O)C(C)C; Sar = CNCC(=O)O
readout: bioavailability (%)
Give just the number in %; leave the unit off.

[
  {
    "molecule": "C/C=C/C[C@@H](C)[C@@H](O)[C@H]1C(=O)N[C@@H]([C@@H](C)O)C(=O)N(C)CC(=O)N(C)[C@@H](CC(C)C)C(=O)N[C@@H](CC(C)C)C(=O)N(C)[C@@H](CC(C)C)C(=O)N[C@@H](C)C(=O)N[C@H](C)C(=O)N(C)[C@@H](CC(C)C)C(=O)N[C@@H](CC(C)C)C(=O)N(C)[C@@H](C(C)C)C(=O)N1C (cyclo(A[dA][NMeL]L[NMeV][MeBmt]T[Sar][NMeL]L[NMeL]))",
    "measurement-units": "%",
    "bioavailability": 4.3
  },
  {
    "molecule": "C/C=C/C[C@@H](C)[C@@H](O)[C@H]1C(=O)N[C@@H]([C@@H](C)O)C(=O)N(C)[C@H](C)C(=O)N(C)[C@@H]([C@@H](C)OC(C)(C)C)C(=O)N[C@@H](CC(C)C)C(=O)N(C)[C@@H](CC(C)C)C(=O)N[C@@H](C)C(=O)N[C@H](C)C(=O)N(C)[C@@H](CC(C)C)C(=O)N[C@@H](CC(C)C)C(=O)N(C)[C@@H](C(C)C)C(=O)N1C",
    "measurement-units": "%",
    "bioavailability": 74
  }
]

Exercise: Could you share which bioavailability value was measured for `C/C=C/C[C@@H](C)[C@@H](O)[C@H]1C(=O)N[C@@H]([C@@H](C)O)C(=O)N(C)[C@H](C)C(=O)N(C)[C@@H]([C@@H](C)OO)C(=O)N[C@@H](CC(C)C)C(=O)N(C)[C@@H](CC(C)C)C(=O)N[C@@H](C)C(=O)N[C@H](C)C(=O)N(C)[C@@H](CC(C)C)C(=O)N[C@@H](CC(C)C)C(=O)N(C)[C@@H](C(C)C)C(=O)N1C` ?
Key: 32

###

assay: AUC (0 to 24 hrs) in po dosed rat; type: ADME, organism-based; design: time < 24 hr, route oral; conditions: in vivo
Where a SMILES comes first, the peptide text is derived from it. [ ]: non-standard residue; d: D form. MeBmt = C/C=C/C[C@@H](C)[C@@H](O)[C@H](NC)C(=O)O; NMeT = CN[C@H](C(=O)O)[C@@H](C)O; NMeL = CN[C@@H](CC(C)C)C(=O)O; NMeV = CN[C@H](C(=O)O)C(C)C; dNMeA = CN[C@H](C)C(=O)O
readout: AUC(0-t) at 24 h (ng·h/mL)
Give just the number in ng·h/mL; leave the unit off.

Take a look at these entries with their results.
[
  {
    "compound": "C/C=C/C[C@@H](C)[C@@H](O)[C@H]1C(=O)N[C@@H]([C@@H](C)O)C(=O)N(C)[C@H](C)C(=O)N(C)[C@@H]([C@@H](C)OC(C)(C)C)C(=O)N[C@@H](CC(C)C)C(=O)N(C)[C@@H](CC(C)C)C(=O)N[C@@H](C)C(=O)N[C@H](C)C(=O)N(C)[C@@H](CC(C)C)C(=O)N[C@@H](CC(C)C)C(=O)N(C)[C@@H](C(C)C)C(=O)N1C",
    "readout": "AUC(0-t) at 24 h",
    "measurement-units": "ng·h/mL",
    "observed-result": 9450
  },
  {
    "compound": "C/C=C/C[C@@H](C)[C@@H](O)[C@H]1C(=O)N[C@@H]([C@@H](C)O)C(=O)N(C)[C@H](C)C(=O)N(C)[C@@H]([C@@H](C)OC)C(=O)N[C@@H](CC(C)C)C(=O)N(C)[C@@H](CC(C)C)C(=O)N[C@@H](C)C(=O)N[C@H](C)C(=O)N(C)[C@@H](CC(C)C)C(=O)N[C@@H](CC(C)C)C(=O)N(C)[C@@H](C(C)C)C(=O)N1C (cyclo(A[dA][NMeL]L[NMeV][MeBmt]T[dNMeA][NMeT](Me)L[NMeL]))",
    "readout": "AUC(0-t) at 24 h",
    "measurement-units": "ng·h/mL",
    "observed-result": 16100
  }
]

Continue with the next compound.
Exercise: Could you share which AUC(0-t) at 24 h value was measured for `C/C=C/C[C@@H](C)[C@@H](O)[C@H]1C(=O)N[C@@H]([C@@H](C)O)C(=O)N(C)[C@H](C)C(=O)N(C)[C@@H](CC(C)C)C(=O)N[C@@H](CC(C)C)C(=O)N(C)[C@@H](CC(C)C)C(=O)N[C@@H](C)C(=O)N[C@H](C)C(=O)N(C)[C@@H](CC(C)C)C(=O)N[C@@H](CC(C)C)C(=O)N(C)[C@@H](C(C)C)C(=O)N1C` ?
Key: 4210

The reported measurements were obtained from ChEMBL document CHEMBL4622941.
